Biological target: T1, human IL-13 (human, UniProt P35225 25-146, limits assumed)
T1 construct: The KinExA antigen was detected with an anti-HIS IgG, so it probably carried a HIS tag; also called Interleukin-13; hIL-13
T1 sequence (P35225 other isoform, or with tags, fused parts or gaps limits assumed): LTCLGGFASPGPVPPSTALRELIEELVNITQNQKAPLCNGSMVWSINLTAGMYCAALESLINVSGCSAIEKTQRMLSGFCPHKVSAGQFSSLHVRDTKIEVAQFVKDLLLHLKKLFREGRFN
Test: SPR array (Carterra LSA), antibody captured on anti-human pAb HC30M chip, human IL-13 0.05-100 nM as analyte, 25 C, 1:1 fit
The following binders are listed with their measured koff values.

- binder: "NB-11 (antibody, human IgG4 S228P, kappa, V domains shown) VH: QVTLRESGPALVKPTQTLTLTCTVSGASLSAYSVNWIRQPPGKALEWLAMIWGDGTIVYNSALKSRLTISKDTSKNQVVLTMTNMDPVDTATYYCAGDGYFPYAMDNWGQGSLVTVSS VL: DIVMTQSPDSLSVSLGERATINCRASKSVDSYGHSFMHWYQQKPGQPPKLLIYLASNLESGVPDRFSGSGSGTDFTLTISSLQAEDVAVYYCQQNNEDPRTFGGGTKVEIKR"
  valueUnit: "s⁻¹"
  koff: 0.000135
- binder: "NB-8 (antibody, human IgG4 S228P, kappa, V domains shown) VH: QVTLRESGPALVKPTQTLTLTCTVSGASLSAYSVNWIRQPPGKALEWLAMIWGDGKIVYNSALKSRLTISKDTSKNQVVLTMTNMDPVDTATYYCAGEGYYPYAMDYWGQGSLVTVSS VL: DIVMTQSPDSLSVSLGERATINCRASKSVDSYGNSFMHWYQQKPGQPPKLLIYLASNLESGVPDRFSGSGSGTDFTLTISSLQAEDVAVYYCQQNNEDPRTFGGGTKVEIKR"
  valueUnit: "s⁻¹"
  koff: 0.000674
- binder: "NB-7 (antibody, human IgG4 S228P, kappa, V domains shown) VH: QVTLRESGPALVKPTQTLTLTCTVSGFSLSAYSVNWIRQPPGKALEWLAMIWGDGKIVYNSALKSRLTISKDTSKNQVVLTMTNMDPVDTATYYCAGDGYYPYAMDNWGQGSLVTVSS VL: DIVMTQSPDSLSVSLGERATINCRASKSVDSYGNSFMHWYQQKPGQPPKLLIYLASNLESGVPDRFSGSGSGTDFTLTISSLQAEDVAVYYCQQNNEDPLTFGGGTKVEIKR"
  valueUnit: "s⁻¹"
  koff: 0.000827
- binder: "NB-12 (antibody, human IgG4 S228P, kappa, V domains shown) VH: QVTLRESGPALVKPTQTLTLTCTVSGASLSAYSVNWIRQPPGKALEWLAMIWGDGKIVYNSALKSRLTISKDTSKNQVVLTMTNMDPVDTATYYCAGDGYYPWAMDNWGQGSLVTVSS VL: DIVMTQSPDSLSVSLGERATINCRASQSVDSYGNSFMHWYQQKPGQPPKLLIYLASNLESGVPDRFSGSGSGTDFTLTISSLQAEDVAVYYCQQNNEDPRTFGGGTKVEIKR"
  valueUnit: "s⁻¹"
  koff: 0.000711
- binder: "NB-2 (antibody, human IgG4 S228P, kappa, V domains shown) VH: QVTLRESGPALVKPTQTLTLTCTVSGFSLSAYSVNWIRQPPGKALEWLAMIWGDGKIVYNSALKSRLTISKDTSKNQVVLTMTNMDPVDTATYYCAGLGYYPYAMDNWGQGSLVTVSS VL: DIVMTQSPDSLSVSLGERATINCRASKSVDSYGNSFMHWYQQKPGQPPKLLIYLASNLESGVPDRFSGSGSGTDFTLTISSLQAEDVAVYYCQQNNEDPRTFGGGTKVEIKR"
  valueUnit: "s⁻¹"
  koff: 0.000618
